protocol: soluble on expression in E. coli; label from the status in PepcDB or PDB records
quantityName: soluble on expression in E. coli

MYRQALASGEKIFAVAPMIDWTDTRCRFLHRQLSKRALLFTEMIVADAIIHGQREKLLGYHPQEHPVALQLGGSNPAKLAEAVRIAGDYGYDEINLNVGCPSDRVQSGTFGACLMREPEVVAQCISAMKAVAAVPVTVKCRIGVDDQEPETVLPDFLARVVAAGADAVWVHARKAWLQGLSPKENREVPPLDYDLVYRMKRDNPDVFIGINGGIADLDQAGEHLKYVDGVMLGRAAYHNTSILADVDHRIHGEEALQYDWMALRDTMMAYAADYIATGGRLNHVTRHMVGLFQGMPGARRFRQILSSDATRPGAGPEVIEAAFAAIDFNPMKELAG
not soluble
MGSDKIHHHHHHMNKQVNFDELEVGYDVPALPGMDEADIQTPCLVLDLDALERNIKKMGDYAREHGMRHRVHGKMHKSVDVAKLQEELGGACGVCCQKVSEAEVFARGGIKDVMVSNQVTDPQKIDRLARMPKFGARVLCCVDDPANVADLSAAAVKHGTQIEALVEIDCGAGRCGVTTTQEVVNIAKMIDAAEGLKFAGIQAYQGAMQHLDSYDERASKTQVAIDMVEDAIAGLKANGLECDIVGGGGTGSYYFESNSGAFNELQCGSYAFMDADYGRILDKDGKRIDDGEWENALFILTSVMSHAKADKAIVDAGLKAQSVDSGLATIYGRDDVEYVKCSDEHGVVMDPDGVLNVNDKLRLVPGHCDPTCNVHDWYVGVRGGKVETLWPVSARGKAY
not soluble

* * *

protocol: soluble on expression in E. coli; label from the status in PepcDB or PDB records
quantityName: soluble on expression in E. coli

Worked cases, answers included:
MVEEMNNEVTEMKSFSVGDVVSGKVTKVEDKQAFVDVGFKVDGIIPISELSSLHVEKVSDVLSEGDELELKVLKVEDDELILSKRAVQAEKAWETLQAALDSGEVIEAEVADVVKGGLVVDLGVRGFIPASLVERHYVEDFSDYKGRTLRLKVVELDKEANKLILSQRAVLDEEVEAKKKEVLASLQPGDVVEGTVQRLTDFGAFVDVGGVDGLVHISQLAHHRVETPAEVVKEGDAVKVKVLSVDPDSERVSLSIKETLPGPWEQVEGTIQPGDVIEGTVKRLVSFGAFVEVAPGVEGLVHISQIANRHIGTPGEVLSEGERVQAKVLDVNISEKRISLSIRELLDDAGSNQSDREVYESTNEESSGFSLGDMIGDELKKYKLEHHHHHH
soluble
GPGSMEAGGDDLFVINDVEADQMEEVRDARPVEQAQETEADVMESVKGLVPLCVQHAQGPQLSSATFGYDIALMAKRPWAEPGAKLSDYFNYGFNEQSWRVYCAMQEKGEESLLANATAVLQKLELAARPG
soluble
MFRNVAELVELAESQAIPISEVMIRQEIEVTERSREAIIEQMENHLDVMEKAVRRGITEQVRSVSGLTGGDAVLLQDYLKKGNYLSSETVLDAVSKAVATNEVNAAMGTICATPTAGASGVVPGVLFGMEKRLSPTKEQKVRFLFTSGAFGFVVANNASISGAAGGCQAEVGSATGMAAAALVELAGGTPSQSAEAMAIALKNMLGLVCDPVAGLVEVPCVKRNAIGASIAITAADMALAGIQSRIPTDEVIDAMYKIGQAMPVAYKETAQGGLAATPKGRELEAKIFGVALDKK
not soluble
GMHTDVNALFAALWQDYIKMTPSAAKIHQLLGHGAPIINDHIALRTFNIAKVNLSVLAKHFTSIGYVDSGDYKFEQKKLIAKHFEHPDPKQPKVFISELLVEEFSPEVQKSIHGLIDQVDIAATTADNFIYSGRHWDVDKATYQALLAESEYAAWVAALGYRANHFTVSINDLPEFERIEDVNQALKQAGFVLNSSGGEVKGSPEVLLEQSSTMADKVVVNFTDGDVEIPSCFYEFARRYPMANGQLYTGFVAASADKIFESTNAMM
soluble

Query: # query: soluble on expression in E. coli of entry GMDDLTNLAARLRLLEDREEIRELIARYGPLADSGDAEALSELWVEDGEYAVVGFATAKGRAAIAALIDGQTHRALMADGCAHFLGPATVTVEGDTATARCHSVVFRCVSGTFGSHRVSANRWTFRRTPAGWRAVRRENALLDGSAAARALLQFR
Response: soluble

* * *

protocol: soluble on expression in E. coli; label from the status in PepcDB or PDB records
quantityName: soluble on expression in E. coli

MGSDKIHHHHHHMNADIKISFIDNIDKISASDWQNLNNSPCPFLRYNFFNALEKSESASAKQGWQAHHLVATNNNDVTAVMPMYLKSHSWGEYVFDWDWADAFKRNDIDYYPKLVATIPFTPVSSDKLLTSQGHVNELFEPLIEHCQQENINSWHILYCNEIRTALPEDVYQRNTVQFHWFNRDYETFDDFLNTFTSRKRKNTRKERLSIIEQEIDIRQLKNNEISQQDLEFFYLTYQLTYLKRGHQPHLSYEFFKQIVADMADNILLIIASHEQEDIACALFFYDDSQLYGRYWGCTKHYNNLHFELCYYRGIEFCIQNKLQSFNPGTQGEHKIQRGFEPVLTYSYHWVKHVPFRMAIKNFCQQEQQHMLTYQEQCQQVLPFRKI
not soluble
MAHHHHHHMRHMCVTLKRRACTVSFSPFLMSYFQSMLMPYRDSVRSSKSDKASSRTVNEEAKVSLSAFSFLFSEMCTRAHNTPSKASNVEEIEQRLTSLGVLVGARLIMLSSLKDPLELQRRPITIEGALKLFQDKLWSRWFGKPANDLQRETGSDRFFIFDTEPIVLRYVYPSPEYLDGEGRWSINYASFMGGIVEGALKAIGFAAEVLTYHQPEPSKPHQSIFAISFAKHVWDRERRLRG
not soluble
MGNWLLPEGLADVLPAEARRIEELRRELLDLYRTYGFELVAPPLVEYIDSLLSSTGSDLNLRTCKLVDQLSGRTLGVRADMTSQVTRIDAHLLNRAGVTRLCYCGSVLHARPADLLSSRELLQIGAEIYGHAGFEADLEIIQLVMDTLATAGVRNARLDLCHSGVMRAIFDADPQASRHAGDLCTLLREKDVPGLAELASRVDGLGEDTVRALQALATLYGGPEIIARARRELPAVPGMAQALDALQALVDAMPGVTLSVDLADVGGYGYHSGVTFAVYGEDWHDALVRGGRYDDVSRAFGRARPATGFSLDLRKLAAGLTPAEPARAVRAPWGQDPALTDAVRRLRRSGEIVVQVLPGHEQGLDEFVCDRELALQDGAWTVRTL
not soluble

* * *

protocol: soluble on expression in E. coli; label from the status in PepcDB or PDB records
quantityName: soluble on expression in E. coli

IGEFSYSLNGNLSYAHNRILSRTQADNTLPWQSVLGSSVGELWGLKALGLYQSEEEIANSPQVSWNTPRVGDIKYADINGDGKIDSNDRIKISRGIRPEMMFALMADANYKGFDLSVQFQGAALCDKMLQYSWQDLNGATDMTPMTRPWYANWDNAPLYLVENSWRPDHTNAEYPRLTVSSVSHSNNAQQSDFWKRNGAYLRLKNVTLGYTLPKAWTNKMGLSNIRVYANGTNLLTFTDFKYIDPESTNVATGYYPQQRTFSFGIDVRF
not soluble
MGSDKIHHHHHHMVLRYTALGDSLTTGRGSGLFSPGFVQRFGDMMEADLKTRTAINIFARSGLNTEEILGLLSYPYVQKCIRDADMITITGCGNDLIDSVLAYQTSKDETIFSRVSAHCHENFEKMIAKVAEIKGENPSPYAIRVFNLYNPFPEIDIAGKWITSFNSHLETLASAPHVKIADAYSIFKGKEQEYLSFDGVHPNSKGYQAMAEAVHKLGYKELSVS
not soluble

* * *

protocol: soluble on expression in E. coli; label from the status in PepcDB or PDB records
quantityName: soluble on expression in E. coli

MHLSPESLEAFVQAVSLGSFSAAARKLGKSQSTVSEAIARLEIDLGLELFDRSGRQPQLTEAGRTLLGRVEEVLGASDRLRRVAALLAGGSEPRVTLALSDTYHSARYEARLAELDERYPELEFECLIAEDQDVIAQVSRGRATLGLLAAQPHYPPELGVAAVAERAEFGLFAAVDHPLAGLERVSERDLSEWRLLRLNTYSETGAAINDGLPSSGGRCWSAPNYLLLLEMATHGFGWAELPRWLVSGYANGRLKELPVSGWPRSQAVDVVWSRQRPLGPAANWLLDRLLDRDLPI
not soluble
MGSDKIHHHHHHMQETKTTVRASTLSNGRSLAAYHEDFDRKWASAWGRTLTYAQMHANRVVQSARIVLSHPDIWGKVASGFVNAARGRKRLLRSLEIAVTYRCNARCEQCSCRRDHDPVREKTELLTLPELQRVIDEAVDMGAFQFCINGGEPMLEEEKVFALLDYIKTRHKGYVHLCTNGTLLDDDKVARLAEHHLDSVEMGFDSAFEDVHDANRVRGGYRKVFHNIEAFRKRGVGVVLNTILTNQKVRSDDMLFTMDLAKKHGCMLQVTPCCLTGALRGRMDMMLTEKARFYFYWFLAQSTNNRSDLYSSLTRIKCPAGREKLGLQPYGDVVSCPLIQIRYGNVREKGLAAIQQDILADPYYGLDGSHGCLPAMSETFIRERLSGDR
not soluble
